Data provenance is patent US12227500B2.

target: panel of 60 human kinases (Homo sapiens); construct: purchased Reaction Biology Corp; assay: Radiolabeled ATP kinase assay, panel of 60 kinases (Table S5); type: biochemical; conditions: FGFR2; 0.1 μM; 10 μM ATP; read-out: % Enzyme Activity (relative to DSMO controls)
Sequence (P21802 22-821): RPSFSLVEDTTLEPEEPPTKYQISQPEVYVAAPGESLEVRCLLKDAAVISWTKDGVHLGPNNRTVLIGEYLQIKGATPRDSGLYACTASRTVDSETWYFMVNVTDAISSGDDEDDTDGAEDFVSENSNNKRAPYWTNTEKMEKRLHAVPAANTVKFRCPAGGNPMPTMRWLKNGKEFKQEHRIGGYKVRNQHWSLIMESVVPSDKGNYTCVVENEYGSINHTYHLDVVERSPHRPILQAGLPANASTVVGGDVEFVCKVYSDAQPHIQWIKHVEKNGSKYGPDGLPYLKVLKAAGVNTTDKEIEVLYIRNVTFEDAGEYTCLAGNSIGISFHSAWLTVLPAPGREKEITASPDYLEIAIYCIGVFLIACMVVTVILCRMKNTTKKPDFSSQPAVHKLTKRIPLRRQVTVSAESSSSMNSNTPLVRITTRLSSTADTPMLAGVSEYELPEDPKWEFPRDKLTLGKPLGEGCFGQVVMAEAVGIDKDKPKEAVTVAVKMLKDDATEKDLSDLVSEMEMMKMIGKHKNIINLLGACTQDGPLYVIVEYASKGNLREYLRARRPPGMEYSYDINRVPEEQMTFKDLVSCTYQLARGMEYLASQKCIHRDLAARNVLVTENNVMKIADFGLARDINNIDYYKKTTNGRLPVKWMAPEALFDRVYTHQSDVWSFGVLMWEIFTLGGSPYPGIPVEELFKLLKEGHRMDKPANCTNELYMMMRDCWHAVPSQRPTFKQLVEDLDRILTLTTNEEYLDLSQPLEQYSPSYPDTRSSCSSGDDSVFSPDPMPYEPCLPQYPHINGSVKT
Endpoint: remaining activity at 0.1 µM

Check out these entries, answers already filled in.
{"Compound": "COc1ccccc1-c1c[nH]c2ncc(-c3ccc(CN4CCN(C)CC4)cc3)cc12 [Compound 7at]", "remaining activity at 0.1 µM": "83.4%"}
{"Compound": "Cc1nn(C)c(C)c1-c1c[nH]c2ncc(-c3ccc(CN4CCN(C)CC4)cc3)cc12 [Compound 7ai]", "remaining activity at 0.1 µM": "80.9%"}
{"Compound": "CN1CCN(Cc2ccc(-c3cnc4[nH]cc(-c5ccc6[nH]ccc6c5)c4c3)cc2)CC1 [Compound 1, reference compound]", "remaining activity at 0.1 µM": "52.9%"}
{"Compound": "CN1CCN(Cc2ccc(-c3cnc4[nH]cc(-c5ccc6c(c5)OCCO6)c4c3)cc2)CC1 [Compound 7d]", "remaining activity at 0.1 µM": "70.4%"}
{"Compound": "CN1CCN(Cc2ccc(-c3cnc4[nH]cc(-c5cnn(Cc6ccccc6)c5)c4c3)cc2)CC1 [Compound 7ah]", "remaining activity at 0.1 µM": "73.8%"}
{"Compound": "CN1CCN(Cc2ccc(-c3cnc4[nH]cc(-c5ccoc5)c4c3)cc2)CC1 [Compound 7w]", "remaining activity at 0.1 µM": "77.8%"}
{"Compound": "CN1CCN(Cc2ccc(-c3cnc4[nH]cc(-c5ccccc5Cl)c4c3)cc2)CC1 [Compound 7as]", "remaining activity at 0.1 µM": "41.1%"}
{"Compound": "CN1CCN(Cc2ccc(-c3cnc4[nH]cc(-c5cccc(Cl)c5)c4c3)cc2)CC1 [Compound 7ad]", "remaining activity at 0.1 µM": "77.6%"}

Now consider the entry below.
CN1CCN(Cc2ccc(-c3cnc4[nH]cc(-c5ccncc5)c4c3)cc2)CC1 [Compound 7n] has a reported remaining activity at 0.1 µM of 94%
